Test system: SF-268
Test: NCI tumour cell line growth inhibition, 48 h
Calls of active or inactive are those of the source. Rule as the data show it: active = GI50 up to about 1.1 µM and inactive = higher.
Endpoint Name: GI50

Below are worked cases with known answers.
Molecule: CCOC(=O)C(NC(=O)c1ccccc1)(N1CCOCC1)C(F)(F)F (stereo not drawn)
GI50: > 100 µM (inactive)
--
Molecule: Cc1cc(O)nc(NN2C(Cl)C(=O)C2c2ccco2)n1 (stereo not drawn)
GI50: 29.4 µM (inactive)
--
Molecule: CC1OC(c2ccc3c(c2O)C(=O)C2=C(C3=O)C3(O)C(=O)CC(C)(O)CC3(O)C=C2)CC(O)C1O (stereo not drawn)
GI50: 21.2 µM (inactive)

Query :: Item under review: COc1ccc(S(=O)(=O)O)cc1-n1nc(C(=O)Nc2ccccc2)n[n+]1-c1cc(S(=O)(=O)[O-])ccc1OC . Reported GI50?
Result :: > 100 µM (inactive)

====

Tested on: SR
Experiment: NCI tumour cell line growth inhibition, 48 h
Calls of active or inactive are those of the source. Cut-off read from the data, not from the text of the source: active = GI50 up to about 1.1 µM and inactive = higher.
Endpoint Name: GI50

Known GI50 results, listed for orientation:
Compound: CN(N=O)C(=O)N[C@H]1C(O)O[C@H](CO)[C@@H](O)[C@@H]1O (some centres undefined)
Target Desc: SR
GI50: 537 µM (inactive)
--
Compound: O[C@@H]1C=C[C@]23CCN(Cc4cc5c(cc42)OCO5)[C@@H]3C1
Target Desc: SR
GI50: 67.8 µM (inactive)
--
Compound: CCCCCCCCc1cc2c(O)c(c1)Cc1cc(CCCCCCCC)cc(c1O)Cc1cc(CCCCCCCC)cc(c1O)Cc1cc(CCCCCCCC)cc(c1O)Cc1cc(CCCCCCCC)cc(c1O)Cc1cc(CCCCCCCC)cc(c1O)C2
Target Desc: SR
GI50: > 100 µM (inactive)

Here's the next entry for you.
Query :: Can you share its GI50? I mean this compound: CC1OC(c2ccc3c(c2O)C(=O)C2=C(C3=O)C3(O)C(=O)CC(C)(O)CC3(O)C=C2)CC(O)C1O (centres undefined)
Result :: 10.2 µM (inactive)

====

Tested on: SW-620
Assay: NCI tumour cell line growth inhibition, 48 h
The source made the active and inactive calls. No stated cut-off is given here; in the data, active = GI50 up to about 1.1 µM and inactive = higher.
Output constraint: value belongs to t = active, f = inactive

Study these solved cases before continuing.
Compound: O=C1CSC2(CC(/C=C/c3ccccc3[N+](=O)[O-])=NN2c2cccc(S(=O)(=O)O)c2)N1c1nc2ccccc2s1 (stereo not given)
Discrete Label: f
--
Compound: N#CC(/C(CCCC(=O)Nc1cccc([N+](=O)[O-])c1)=N/NC(=O)c1cc2ccccc2cc1O)c1ccccc1 (stereo not given)
Discrete Label: f
--
Compound: O=C1c2ccccc2C(=O)c2c(NCCNCCO)ccc(O)c21
Discrete Label: f

Query :: For CC(C)C1C(=O)NC(CO)Cc2c[nH]c3c(C(c4c[nH]c5ccccc45)C(O)CO)ccc(c23)N1C (stereo not given) , what call appears in the results of this test?
Result :: f

Query :: C[C@H](N)C(=O)N[C@@H]1[C@H]2C(=C(O)C[C@@H](O)[C@@H]2O)C(=O)O[C@@H]1C ?
Result :: f

Query :: Another compound to look at: CN(C)CCNCCCNc1c2ccccc2nc2cccc([N+](=O)[O-])c12
Result :: t

Query :: Same again, this time with O=C1CC[C@@H](NC(=O)Cc2ccccc2)C(=O)N1
Result :: f

Query :: Could you do the same for CC(C)/C=C1\CCC(CN2CCCC2)C1=O (stereo not given) , please?
Result :: f

Query :: And for CC(=O)NC(CCC(=O)C=[N+]=[N-])C(=O)O (stereo not given) ?
Result :: f

Query :: Can you check C=C1C(=O)C=C2C=C3C(=O)C(C)(C)C[C@]3(O)C12C (stereo not given in full) next?
Result :: t
